Provide the recorded pIC50 for the entries that follow.
Molecular target: ALK2 R206H (GST-tagged mutant ALK2) (Homo sapiens, UniProt Q04771, R206H)
Construct: purchased Carna Bioscience or ThermoFisher 09-148 or PV6232
Assay: ALK binding assay (LANTHASCREEN TR-FRET competitive binding, displacement of Kinase Tracer 178)
Conditions: ALK2 R206H, LANTHASCREEN TR-FRET competitive binding; read-out: Binding Assay (IC50)
pIC50: −log10 of the molar value.

Which value of pIC50 has been reported for CC(C)NC(=O)N1CCN(c2ccnn3cc(-c4ccc(C5COCCN5)cc4)cc23)CC1 (stereo not drawn) [Compound 478] in the records? > 8.00

Now the same for CCN1CC2CN(c3ccnn4cc(-c5ccc(N6CCN(C(C)C)CC6)cc5)cc34)CCN2C1=O (stereo not drawn) [Compound 329] > 8.00

Now the same for CCN1CCC(c2ccc(-c3cc4c(N5CCN(C(=O)C6(C(F)(F)F)CC6)CC5)ccnn4c3)cc2)C1 (stereo not drawn) [Compound 410] < 7.30

Now the same for CC(C)N1CCC(O)(c2ccc(-c3cc4c(N5CCN(C(=O)C6CC6)CC5)ccnn4c3)cc2)C1 (stereo not drawn) [Compound 271] > 8.00

Now the same for O=C(C1CC1)N1CCN(c2ccnn3cc(-c4ccc(O[C@@H]5CCCNC5)cc4)cc23)CC1 [Compound 162] > 8.00

Now the same for O=C(C1CC1)N1CCN(c2ccnn3cc(-c4ccc(N5CCC6(CCNC6)C5)cc4)cc23)CC1 (stereo not drawn) [Compound 244] > 8.00

Now the same for O=C(C1CC1)N1CCN(c2ccnn3cc(-c4cnn(C5CCCC5)c4)cc23)CC1 [Compound 103] 7.30 to 8.00

Now the same for CCN1CCC(c2ccc(-c3cc4c(N5CCN(C(=O)N6CCC(O)CC6)CC5)ccnn4c3)cc2)CC1 [Compound 423] > 8.00

Now the same for CCOC(=O)N1CCN(c2ccnn3cc(-c4ccc(C(N)C(C)(C)O)cc4)cc23)CC1 (stereo not drawn) [Compound 764] > 8.00

Now the same for O=C(C1CC1)N1CCN(c2ccnn3cc(-c4cccc(C5CNCCO5)c4)cc23)CC1 (stereo not drawn) [Compound 128] 7.30 to 8.00

Now the same for CC(C)NC(C)(CO)c1ccc(-c2cc3c(N4CCN(C(=O)C5CC5)CC4)ccnn3c2)cc1 (stereo not drawn) [Compound 493] > 8.00

Now the same for O=C(C1CC1)N1CCN(c2ccnn3cc(-c4ccc(CNCCO)cc4)cc23)CC1 [Compound 756] > 8.00

Now the same for CC(C)N1CCC[C@](O)(c2ccc(-c3cc4c(N5CCN(C(=O)C6CC6)CC5)ccnn4c3)cc2)C1 [Compound 326] > 8.00

Now the same for COC1(c2ccc(-c3cc4c(N5CCN(C(=O)C6CC6)CC5)ccnn4c3)c(C#N)c2)CCN(C(C)C)CC1 [Compound 839] > 8.00

Now the same for CC(C)N1CC2(CN(c3ccc(-c4cc5c(N6CCN(C(=O)C7CC7)CC6)ccnn5c4)cc3)C2)C1 [Compound 308] > 8.00

* * *

Biological target: ALK2 R206H (GST-tagged mutant ALK2) (Homo sapiens, UniProt Q04771, R206H)
Construct: purchased Carna Bioscience or ThermoFisher 09-148 or PV6232
Assay: ALK binding assay (LANTHASCREEN TR-FRET competitive binding, displacement of Kinase Tracer 178)
Settings: ALK2 R206H, LANTHASCREEN TR-FRET competitive binding; read-out: Binding Assay (IC50)
pIC50: −log10 of the molar value.
Provide the recorded pIC50 for the entries that follow.

Which value of pIC50 has been reported for CC(C)NC(=O)N1CCN(c2ccnn3cc(-c4cnn([C@@H]5CCCNC5)c4)cc23)CC1 in the records? > 8.00

Now the same for CC(C)NC(=O)N1CCN(c2ccnn3cc(-c4ccc(C5CCN(C(C)C)CC5)cc4)cc23)CC1 > 8.00

Now the same for CC(C)N1CC[C@H](c2ccc(-c3cc4c(N5CCN(C(=O)[C@H]6C[C@H](O)C6)CC5)ccnn4c3)cc2)C1 > 8.00

Now the same for COC1(c2ccc(-c3cc4c(N5CCN(C(=O)OC6COC6)CC5)ccnn4c3)nc2)CCNC(C)(C)C1 (stereo not shown) > 8.00

* * *

Provide the recorded IC50 for the entries that follow.
Biological target: human ALK2 R206H (Homo sapiens, UniProt Q04771, R206H)
Construct: expressed in transfected cells; host or cells: HEK293 (ATCC CRL1573), lentivirus transduction, blasticidin selection
Test: Cell-based ALK2-R206H cell activity assay (Smad1-Ser463/Ser465 phosphorylation by AlphaLISA in HEK293-ALK2-R206H cells)
Details: read-out: Cell Line (Cell Assay IC50)

Which value of IC50 has been reported for CCN1CCC(c2ccc(-c3cc4c(N5CCN(C(=O)N6CCC(C#N)CC6)CC5)ccnn4c3)cc2)CC1 in the records? 100 to 500 nM

Now the same for COC1(c2ccc(-c3cc4c(N5CCN(C(=O)NC(C)C)CC5)ccnn4c3)nc2)CCN(C(C)C)CC1 < 100 nM

Now the same for O=C(C1CC1)N1CCN(c2ccnn3cc(-c4nc5c(s4)CNCC5)cc23)CC1 < 100 nM

Now the same for O=C(C1CC1)N1CCN(c2ccnn3cc(-c4cnn(C5CCNCC5)c4)cc23)CC1 100 to 500 nM

Now the same for CCNC(=O)N1CCN(c2ccnn3cc(-c4ccc([C@H]5CCCN5)nc4)cc23)CC1 100 to 500 nM

Now the same for CC(C)N1C[C@H](c2ccc(-c3cc4c(N5CCN(C(=O)C6CC6)CC5)ccnn4c3)cc2)C[C@@H]1C < 100 nM

Now the same for CCOC1(c2ccc(-c3cc4c(N5CCN(C(=O)C6CC6)CC5)ccnn4c3)nc2)CCN(C(C)C)CC1 < 100 nM

* * *

Target: human ALK2 R206H (Homo sapiens, UniProt Q04771, R206H)
Construct: expressed in transfected cells; host or cells: HEK293 (ATCC CRL1573), lentivirus transduction, blasticidin selection
Experiment: Cell-based ALK2-R206H cell activity assay (Smad1-Ser463/Ser465 phosphorylation by AlphaLISA in HEK293-ALK2-R206H cells)
Details: Cell Line (Cell Assay IC50)
pIC50: −log10 of the molar value.
PROPERTY_NAME: pIC50

Which value of pIC50 has been reported for COC(=O)C1(c2ccc(-c3cc4c(N5CCN(C(=O)OC6COC6)CC5)ccnn4c3)cc2)CCN(C(C)C)CC1 [Compound 874] in the records? 6.30 to 7.00

Now the same for CC1(C)CC(O)(c2ccc(-c3cc4c(N5CCN(C(=O)C6CC6)CC5)ccnn4c3)cc2)CC(C)(C)N1 [Compound 813] > 7.00

* * *

Provide the recorded IC50 for the entries that follow.
Target: ALK2 R206H (GST-tagged mutant ALK2) (Homo sapiens, UniProt Q04771, R206H)
Construct: purchased Carna Bioscience or ThermoFisher 09-148 or PV6232
Experiment: ALK binding assay (LANTHASCREEN TR-FRET competitive binding, displacement of Kinase Tracer 178)
Settings: ALK2 R206H, LANTHASCREEN TR-FRET competitive binding; read-out: Binding Assay (IC50)

Which value of IC50 has been reported for CC(C)N1CCC[C@H](c2ccc(-c3cc4c(N5CCN(C(=O)[C@H]6C[C@H](O)C6)CC5)ccnn4c3)cc2)C1 in the records? < 10 nM

Now the same for CCNC(=O)N1CCN(c2ccnn3cc(-c4ccc(N5CC6(C5)CN(C(C)C)C6)cc4)cc23)CC1 < 10 nM

Now the same for C[C@H]1CNC[C@@H](c2ccc(-c3cc4c(N5CCN(C(=O)C6CC6)CC5)ccnn4c3)cc2)O1 10 to 50 nM

Now the same for CC(C)NC(=O)N1CCN(c2ccnn3cc(-c4ccc(C5(C(F)(F)F)CCN(C(C)C)CC5)cc4)cc23)CC1 < 10 nM

* * *

Molecular target: human ALK2 R206H (Homo sapiens, UniProt Q04771, R206H)
Construct: expressed in transfected cells; host or cells: HEK293 (ATCC CRL1573), lentivirus transduction, blasticidin selection
Sequence (Q04771 21-509 R206H): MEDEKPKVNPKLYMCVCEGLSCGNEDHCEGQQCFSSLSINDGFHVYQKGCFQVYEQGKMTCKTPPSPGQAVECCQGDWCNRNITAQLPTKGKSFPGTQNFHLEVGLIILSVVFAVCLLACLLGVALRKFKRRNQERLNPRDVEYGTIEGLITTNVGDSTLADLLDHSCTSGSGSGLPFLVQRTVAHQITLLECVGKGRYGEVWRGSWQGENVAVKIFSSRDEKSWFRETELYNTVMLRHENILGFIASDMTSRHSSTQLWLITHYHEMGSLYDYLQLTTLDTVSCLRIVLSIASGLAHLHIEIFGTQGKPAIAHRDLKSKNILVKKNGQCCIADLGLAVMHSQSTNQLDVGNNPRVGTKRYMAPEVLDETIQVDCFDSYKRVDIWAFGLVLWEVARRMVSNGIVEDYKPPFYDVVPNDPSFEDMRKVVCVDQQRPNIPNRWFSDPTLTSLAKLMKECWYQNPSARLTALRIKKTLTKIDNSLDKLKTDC
Experiment: Cell-based ALK2-R206H cell activity assay (Smad1-Ser463/Ser465 phosphorylation by AlphaLISA in HEK293-ALK2-R206H cells)
Conditions: read-out: Cell Line (Cell Assay IC50)
pIC50: −log10 of the molar value.
Provide the recorded pIC50 for the entries that follow.

Which value of pIC50 has been reported for O=C(C1CC1)N1CCN(c2ccnn3cc(-c4ccc(C5(F)CCNCC5)cc4)cc23)CC1 in the records? 6.30 to 7.00

Now the same for COC1(c2ccc(-c3cc4c(N5CCN(C(=O)NC(C)C)CC5)ccnn4c3)nc2)CCNC(C)(C)C1 (centres unmarked) > 7.00

Now the same for O=C(C1CC1)N1CCN(c2ccnn3cc(-c4ccc(C5CCCN5)cn4)cc23)CC1 (centres unmarked) [Compound 452] > 7.00

Now the same for CCN1CCN(c2ccc(-c3cc4c(N5CCN(C(=O)C6CC6)CC5)ccnn4c3)nc2)CC1 > 7.00

Now the same for N#CC1(c2ccc(-c3cc4c(N5CCN(C(=O)C6CC6)CC5)ccnn4c3)cc2)CCNCC1 > 7.00

Now the same for CC(C)N1CCCC(c2ccc(-c3cc4c(N5CCN(C(=O)C6CCC6)CC5)ccnn4c3)cc2)C1 (centres unmarked) > 7.00

Now the same for CCN1CCC(c2ccc(-c3cc4c(N5CCN(C(=O)C6CC6)CC5)ccnn4c3)cc2)CC1 > 7.00

Now the same for O=C(C1CC1)N1CCN(c2ccnn3cc(-c4ccc(CNC5COC5)cc4)cc23)CC1 6.30 to 7.00
